Cited source for all entries: PubChem BioAssay AID602410

target: Potassium channel subfamily K member 3 (Homo sapiens); assay: human KCNK3 channel inhibitors, primary screen, CHO cells, FluxOR thallium flux, B-score (AID 602410); conditions: FluxOR fluorescence, at 10 µM;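 for B-score: more negative B-score means stronger inhibition of thallium flux through KCNK3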
About 2,800 (0.82%) of roughly 340,000 compounds were called active.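 Rule for the calls: active = B-score under library mean minus 4 SD, starting fluorescence ratio at most library mean plus 5 SD; inactive = the rest.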 The entries come from a sample that favours actives as a whole.
Outcomes: y for active, n for inactive

>>> classification("Cc1cccc(N(C(=O)Cc2cccs2)C(C(=O)NC2CCCC2)c2ccsc2)c1 (stereo not drawn)")
"n"
>>> classification("CC(C)N(Cc1ccccc1)C(=O)COC(=O)c1cnccn1")
"n"
>>> classification("O=[N+]([O-])c1cccc(C=NN=Cc2ccccc2O)c1")
"n"
>>> classification("Cc1cccc2c1-c1sc(C(=O)NCCCN3CCc4ccccc4C3)cc1CO2")
"y"
>>> classification("S=c1[nH]nc(-c2ccco2)n1/N=C/c1ccc(Br)s1")
"n"
>>> classification("O=C(NCCCN1CCOCC1)c1cc2c(s1)CCC2")
"n"
>>> classification("O=C(/C=C/NNC(=O)c1cccc(Br)c1)c1ccccc1")
"y"
>>> classification("O=C(c1cc(-c2cccc(O)c2)on1)N1CCc2ccccc2C1")
"n"

====

molecular target: Potassium channel subfamily K member 3 (Homo sapiens); test: human KCNK3 channel inhibitors, primary screen, CHO cells, FluxOR thallium flux, B-score (AID 602410); settings: FluxOR fluorescence, at 10 µM;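 for B-score: more negative B-score means stronger inhibition of thallium flux through KCNK3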
Among all 340,000 compounds or so, about 2,800 (0.82%) were called active.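 The calls were made as follows: active = B-score under library mean minus 4 SD, starting fluorescence ratio at most library mean plus 5 SD; inactive = the rest.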 The entries come from a sample that favours actives as a whole.
Outcomes: true = active, false = inactive

>>> classification("COC(=O)[C@@H]1CC(O)CN1C(=O)C12CC3CC(CC(C3)C1)C2 (some centres not stated)")
"false"
>>> classification("O=C(c1ccccc1F)N(Cc1ccccc1)Cc1ccccc1")
"false"
>>> classification("CCCCc1ccc(NC(=O)NCc2cccnc2)cc1")
"false"
>>> classification("NS(=O)(=O)c1ccc(NC(=O)/C=C/c2ccccc2Cl)cc1")
"false"
>>> classification("CCOc1ccc(CCNC(=O)COC(=O)c2ccc(F)c(S(=O)(=O)N3CCOCC3)c2)cc1OCC")
"false"
>>> classification("Cc1cc(C)c2cc(CN(Cc3nnnn3Cc3ccc(F)cc3)C3CCCC3)c(=O)[nH]c2c1")
"false"
>>> classification("N/C(Cc1ccc([N+](=O)[O-])cc1)=N\\OC(=O)COc1ccc2ccccc2c1")
"true"
>>> classification("O=C(COc1ccc2c(C(F)(F)F)cc(=O)oc2c1)Nc1ccc2c(c1)OCCO2")
"false"
>>> classification("O=C(NCc1cn2ccsc2n1)Nc1cccc(Cl)c1")
"false"
>>> classification("Cc1cc(C)cc(OCC(=O)O/N=C(\\N)Cc2ccc([N+](=O)[O-])cc2)c1")
"false"
>>> classification("Cn1c(=O)c2sccc2n(Cc2ccc(Br)cc2)c1=O")
"false"
>>> classification("O=S(=O)(Nc1ccc(O)c2ccccc12)c1ccc(OC(F)(F)F)cc1")
"false"
